Each recorded value in this set is attributed to PubChem BioAssay (NCI).

Tested on: HOP-62 NSCLC
Assay: NCI tumour cell line growth inhibition, 48 h
measure.name: TGI

Query string: Quick check: TGI of COC(=O)C1c2cc3c(c(O)c2C(O)CC1(C)O)C(=O)c1c(O)cc2c(c1C3=O)OC1OC2(C)C(O)C(N(C)C)C1O (stereo not given) ?
Result string: > 100 µM

Query string: One more compound: O=C(O)CCc1nc(-c2ccccc2-n2cccc2)no1
Result string: > 100 µM

Query string: What about this compound? Cc1cc2nc3c4ccc(Br)cc4n(CCN(C)C)c3nc2cc1C
Result string: 10.7 µM

Query string: What do you get for NS(=O)(=O)c1ccc(NC(=O)c2cccc(NC3=C(Cl)C(=O)N(Cc4ccccc4)C3=O)c2)cc1 ?
Result string: > 100 µM

Query string: Param item: Cc1ccc(-c2n[nH]c(=O)c3noc(-c4ccc(C)cc4)c23)cc1
Result string: 13.4 µM

Query string: Would you mind doing COC(=O)C(NC(=O)OC(C)(C)C)P(=O)(OC)OC (stereo not given) as well?
Result string: > 100 µM

Query string: Try this compound next: N#C/C(=C\c1ccc2[nH]ccc2c1)C(=O)c1ccc(O)c(O)c1
Result string: > 100 µM

Query string: Also CCn1c2ccccc2c2cc(Nc3cc(C)[nH]c(=O)n3)ccc21 , if possible.
Result string: > 100 µM

Query string: One more compound: COc1ccc2c(c1)/C(=N/OC(C)=O)c1c-2cnc2ccccc12
Result string: 46.6 µM

Query string: How about Cc1cc(Br)cc(C)c1NC(=O)C(=O)Nn1c(=S)[nH]c2ccccc2c1=O ?
Result string: > 100 µM

----------
What TGI was measured for each of the following?
Test system: DU-145 prostate
Test: NCI tumour cell line growth inhibition, 48 h

Query string: Return reported TGI; argument: NNC(=O)C(O)C(O)C(=O)NN (stereo not given)
Result string: > 100 µM

Query string: Further, for CC(C)(C)[Si](C)(C)OC[C@H](/C=C\CCCC(=O)O)NC1(c2ccccc2)c2ccccc2-c2ccccc21 ?
Result string: > 100 µM

Query string: Please answer likewise for O=C1N(c2ccccc2)C(=S)/C(=C/c2ccc(Cl)cc2)N1c1ccc(Cl)cc1
Result string: > 100 µM

Query string: Record: CC[C@@]1(O)C(=O)OCc2c1cc1n(c2=O)Cc2c-1nc1ccccc1c2/C=N\NC(=O)C(N)Cc1c[nH]c2ccccc12 (stereo not given in full)
Result string: > 100 µM

Query string: // same read-out, input: O=[N+]([O-])C(C=C(n1nnc2ccccc21)n1nnc2ccccc21)=C(n1nnc2ccccc21)n1nnc2ccccc21
Result string: > 100 µM

Query string: Another: c1cc2c(cc1C1=NCCN1)c1cc(C3=NCCN3)ccc1n2CC1CCCCC1
Result string: 77.1 µM

Query string: Consider next the compound COc1ccc(CNc2nc3ccccc3nc2C(=O)O)cc1 in the same way.
Result string: > 100 µM

Query string: # iterate: O=C(Nc1ccc(Cl)cc1)c1cc(S(=O)(=O)Nc2n[nH]c(=O)n2-c2ccccc2)c(S)cc1Cl
Result string: > 100 µM

Query string: // next record COC(=O)c1ccc(NCC2=C(Br)C(=O)C=CC2=O)cc1Cl
Result string: 42.5 µM

Query string: Now the compound O=C(O)CCc1nc(-c2ccccc2-n2cccc2)no1
Result string: > 100 µM

----------
System: UO-31 renal
Test: NCI tumour cell line growth inhibition, 48 h
measure.name: log10 TGI (log10 of the value in µM)
Please note: log10 values; quantity TGI; unit µM.

Query string: Give recorded log10 TGI with UO-31 renal for the following compound: CC1(C)CC(=O)C2=C(C1)OC1(CC2c2ccc(Cl)cc2)CC(c2ccc(Cl)cc2)C2=C(CC(C)(C)CC2=O)O1 (centres undefined)
Result string: 1.49

Query string: And for COC(=O)c1cc(/C=C\c2cc(OC)ccc2OC)ccc1OC ?
Result string: 1.88

Query string: And what about the compound O=[N+]([O-])/C(C(Cl)=C(Cl)Cl)=C(/Nc1ccccc1)Sc1ccccc1 ?
Result string: 1.44

Query string: Also need CC[C@@]1(O)C(=O)OCc2c1cc1n(c2=O)Cc2c-1nc1ccccc1c2/C=N\NC(=O)C(N)Cc1c[nH]c2ccccc12 (some centres undefined) , thanks.
Result string: 0.17

Query string: Same again, this time with COCCN1C(=O)C2c3[nH]c4ccccc4c3C3CCC(C(C)(C)C)CC3C2C1=O (centres undefined)
Result string: 1.43

Query string: Can you handle COc1ccc(NC(=O)C2C(=O)N(c3ccc(OC)cc3)C(=O)/C2=N\NC(N)=O)cc1 (centres undefined) next?
Result string: 1.91

Query string: Moving on to C/C(=N\NS(=O)(=O)c1ccc([N+](=O)[O-])cc1)c1ccc[n+]([O-])n1
Result string: 0.83

Query string: Likewise for O=CCCCC(Sc1ccccc1)Sc1ccccc1 ?
Result string: 1.82

Query string: # iterate: COC(=O)c1ccc(NCC2=C(Br)C(=O)C=CC2=O)cc1Cl
Result string: 1.54

Query string: Param item: O=C(/C=C/c1ccco1)c1ccc(Nc2nc(Nc3ccc(F)cc3)nc(Nc3ccc(F)cc3)n2)cc1
Result string: 1.57

----------
Test system: RPMI-8226 leukemia
Test: NCI tumour cell line growth inhibition, 48 h
I'd be grateful if you could share measured TGI for these entries.

Query string: # get_value(readout='TGI', item= COC(=O)c1ccc(NCC2=C(Br)C(=O)C=CC2=O)cc1Cl )
Result string: > 100 µM

Query string: And for CCCCC[C@H]1CCCCCCCCCC(=O)OC2C(O[C@@H]3OC(C)[C@H](OC(=O)[C@@H](C)CC)C(O[C@@H]4OC(C)[C@H](O)C(O)[C@@H]4O)[C@@H]3OC(=O)[C@H](C)CC)[C@H](OC3C(O)[C@@H](O)C(C)O[C@H]3O1)OC(CO)[C@H]2O (some centres undefined) ?
Result string: 30.5 µM

Query string: How about S=c1nc[nH]c2c1ncn2C1CCCO1 (centres undefined) ?
Result string: > 100 µM

Query string: Try the molecule Cc1c(Cl)cccc1NC(=O)c1sc2nc3c(cc2c1N)CCCC3
Result string: > 100 µM

----------
Test system: HCT-15 colon
Assay: NCI tumour cell line growth inhibition, 48 h
measure.name: GI50

Query string: Which value of GI50 has been reported for COc1ccc(C2=NC(c3ccc(Cl)cc3)C(c3ccc(Cl)cc3)N2C(=O)N2CCNC(=O)C2)c(OC(C)C)c1 (configuration not stated) in the records?
Result string: 1.91 µM

Query string: Then this compound: NC(=O)c1ccc(N(C(N)=O)c2c(F)cccc2F)nc1-c1ccc(F)cc1F
Result string: > 100 µM

Query string: Would you mind doing Cc1cc2nc(-c3c(F)cccc3Cl)n(Cc3c(F)cccc3Cl)c2cc1C as well?
Result string: 13.9 µM

Query string: Try this compound next: O=C(/C=C/c1ccc([N+](=O)[O-])cc1)c1cccc(Nc2nc(Nc3ccccc3)nc(Nc3ccccc3)n2)c1
Result string: 17.7 µM

Query string: Cc1c2ccncc2c(C)c2c1[nH]c1ccc(Cl)cc12 , same question.
Result string: 1.41 µM

Query string: [CH3][Sn]1([CH3])[O]CC(COc2cc(Cl)c(Cl)cc2Cl)[O]1 (configuration not stated) ?
Result string: > 100 µM

Query string: Try this compound next: CN=C(N)N/N=C(\C)c1ccc2c(c1)Cc1ccccc1-2
Result string: 1.83 µM

Query string: Again, but for COc1cccc(NC2=C(Cl)C(=O)N(Cc3ccc(Cl)cc3)C2=O)c1
Result string: 1.05 µM

Query string: Entry to check: CC(=O)[C-](C(C)=O)c1ccccc1.CC(=O)[C-](C(C)=O)c1ccccc1.CC(=O)[C-](C(C)=O)c1ccccc1.[Cl-].[Zr+4]
Result string: > 100 µM

Query string: Now consider CCCCCCCCCCSC(=N)N .
Result string: 2.01 µM

Query string: Now consider O=Cc1ccc(N2CCN(c3ccc(C=O)cc3)CC2)cc1 .
Result string: > 100 µM

Query string: # repeat for O=C1/C(=C\c2ccccc2)C2OCC=C3CN4CCC56c7ccccc7N1C5C2C3CC46 (configuration not stated)
Result string: 7.77 µM

----------
Please go through the items and note down their TGI.
Test system: SW-620 colon
Test: NCI tumour cell line growth inhibition, 48 h

Query string: Reported TGI, molecule O=C(Nc1cccc(C(F)(F)F)c1)c1cc2ccccc2cc1O : ____
Result string: > 100 µM

Query string: Try this molecule too: COC(=O)C(=O)C(C(=O)C(=O)Nc1cc(Cl)c(Cl)cc1Cl)c1nc2ccc([N+](=O)[O-])cc2[nH]c1=O (stereo not given)
Result string: > 100 µM

Query string: Again, but for CC(=O)[C-](C(C)=O)c1ccccc1.CC(=O)[C-](C(C)=O)c1ccccc1.CC(=O)[C-](C(C)=O)c1ccccc1.[Cl-].[Zr+4]
Result string: > 100 µM

Query string: Another: Cc1ccccc1NC(=O)Cc1csc(N=Nc2c(O)[nH]c3ccccc23)n1
Result string: > 1 µM

Query string: Next molecule: O=C1N(c2ccccc2)C(=S)/C(=C/c2ccc(Cl)cc2)N1c1ccc(Cl)cc1
Result string: > 100 µM

Query string: Input FC(F)(F)c1ccc2nc(Sc3ccc4ccccc4c3)cnc2c1
Result string: > 100 µM

Query string: And for Nc1nc(N)c2c(n1)NC(c1sc(Cl)nc1Cl)CC(c1ccc3c(c1)OCO3)=N2 (stereo not given) ?
Result string: 21.5 µM

Query string: Entry C[C@H](CCC(=O)NCC(=O)O)[C@H]1CC[C@H]2[C@@H]3[C@H](O)C[C@@H]4C[C@H](O)CC[C@]4(C)[C@H]3CC[C@]12C please
Result string: > 100 µM

Query string: Then what about the molecule C(=C/c1nc2ccccc2o1)/c1ccc2c(c1)OCO2 ?
Result string: > 100 µM

Query string: Now consider Cc1c(Cl)c(C)c(Cc2c(C)c(Cl)c(C)c(Cl)c2O)c(O)c1Cl .
Result string: 13.5 µM

Query string: Repeat with O=[N+]([O-])C(C=C(n1nnc2ccccc21)n1nnc2ccccc21)=C(n1nnc2ccccc21)n1nnc2ccccc21
Result string: > 100 µM

Query string: Repeat with COc1cccc2c1cc1c3c(cc4c(c32)OCO4)C(=O)N1
Result string: > 100 µM

Query string: What would you report for CN1CCC2(CC1)C(=NC1CCCCC1)NC(=O)N2c1ccccc1 ?
Result string: > 100 µM

Query string: # repeat for O=C(NOCCO)c1cc(CN2OCCCC2=O)c(F)c(F)c1Nc1ccc(I)cc1F
Result string: > 100 µM

Query string: Next: N#C/C(=C\c1ccc2[nH]ccc2c1)C(=O)c1ccc(O)c(O)c1
Result string: > 100 µM

Query string: Would you kindly repeat that for Cc1cc(Br)cc(C)c1NC(=O)C(=O)Nn1c(=S)[nH]c2ccccc2c1=O ?
Result string: > 100 µM

Query string: Further, for O=C(/C=C/C1C(=O)NC(=O)NC1=O)CC(=O)C(=O)Nc1cc(Cl)c(Cl)cc1Cl ?
Result string: > 100 µM

Query string: Consider next the molecule Cc1ccc(S(=O)(=O)NC(CO)C(=O)O)cc1 (stereo not given) in the same way.
Result string: > 100 µM

Query string: Please answer likewise for COc1ccc(CNc2nc3ccccc3nc2C(=O)O)cc1
Result string: > 100 µM

Query string: Field entry: O=Cc1ccc(N2CCN(c3ccc(C=O)cc3)CC2)cc1
Result string: > 100 µM
